B1: mRNA-splicing (parent)
chain: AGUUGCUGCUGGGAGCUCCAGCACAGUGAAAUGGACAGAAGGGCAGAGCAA

variants of: B1; assay: exon inclusion enrichment index; higher = more inclusion; WT1 exon 5 minigene, HEK293
Criterion met means recorded exon inclusion enrichment index is 0.4 or above; Criterion not met means it is below 0.4.

Here are 8 variants together with their reported answers.
• AGUUAUAUAUGGGAGCUCCAGCACAGUGAAAUGGACAUAAGGGCAGAGCAA [G5A C6U U7A G8U C9A G38U] = Criterion not met
• AGUUGCUGCUGGGAGCUCCAGCACAGUGAAAUUCACAGAAGGGCAGAGCAA [G33U G34C] = Criterion not met
• AGUUACCACCGGGAGCUCCAGCACAGUGAAAUGGACAGAAGGAGAGAGCAA [G5A U7C G8A U10C G43A C44G] = Criterion met
• AGUUACCACCAUGAGCUCCAGCACAGUGAAAUGGACAGAAGGGCAGAGCAA [G5A U7C G8A U10C G11A G12U] = Criterion met
• AGUUAGUUAUGGGAGCUCCAGCACAGUGAAAUGGACAGAAGGGCAGAGCAA [G5A C6G G8U C9A] = Criterion not met
• AGUUGACGACGGGAGCUCCAGCACAGUGAAAUGGAAAGAAGGGCAGAGCAA [C6A U7C C9A U10C C36A] = Criterion met
• AGUUGCUGCUGGGAGCUCCAGCACAGUGAAAUGAGCAGAAGGGCAGAGCAA [G34A A35G] = Criterion not met
• AGUUCUUCUUCGGAGCUCCAGCACAGUGAAAUGGACAGAAGGGCAGAGCAA [G5C C6U G8C C9U G11C] = Criterion met

Query :: Reported exon inclusion enrichment index at or above 0.4? AGUUGAAGAUCGGAGCUCCAGCACAGUGAAAUGGACAGAAGGGCAGAGCAA [C6A U7A C9A G11C]
Result :: Criterion met

Query :: Reported exon inclusion enrichment index at or above 0.4? AGUUCACACAGGGAGCUCCAGCACAGUGAAAUGGACUAAAGGGCAGAGCAA [G5C C6A U7C G8A U10A A37U G38A]
Result :: Criterion not met

Values were extracted from the RNAGym collection of RNA variant scans (doi:10.1101/gr.219683.116).
